Cited source: patent US8088433B2

Assay: flavor retention of Model-flavor components in alginate capsules, short continuous vs long batch gelling (ether extraction, HRGC/MS)
Assay type: physicochemical
Conditions: wet alginate capsules, 5% calcium chloride, dwell time 1 minute; relative to Model-flavor solution theoretically encapsulated
Procedure: 50 g sodium alginate were dissolved in 195 g demineralized water using a high speed kneading mixer of the type Ultra-Turrax. 250 g Model-flavor were dissolved in 750 g neutral oil. […] The results of the 1 minute capsule production (corresponding to 8.3 g encapsulated flavor solution) were then dissolved in 200 ml 1% aqueous sodium chloride solution. […] The diethyl ether extract was analyzed using HRGC/MS. […]
observed-property: Flavor Retention, Short Gel Time (continuous) (%)
Give bare numbers, in %.

Examples with their reported Flavor Retention, Short Gel Time (continuous) follow.
> print(dat)
                           compound  quantity.unit  value
1  CC(=O)OCCC(C)C [isoamyl acetate]              %     80
2                       O=Cc1ccccc1              %     82
3  CCCCCCCC(=O)OCC [Ethylcaprylate]              %     90

## Input Entry CCOC(=O)CC [ethyl propionate] has what Flavor Retention, Short Gel Time (continuous)?
## Output 61

----------
Assay: flavor retention of Model-flavor components in alginate capsules, drying with silicon dioxide vs fluidized bed drying
Format: physicochemical
Settings: 200 g wet capsules dried in fluidized bed dryer at 30° C., 100 m^3 per hour air flow; shell water content 62%
Provide the reported Convective Drying: % Retention of each item.
One number for each entry, in %.

Examples with their reported Convective Drying: % Retention follow.
> print(dat)
                           molecule               observed.property  value
1        O=Cc1ccccc1 [benzaldehyde]  Convective Drying: % Retention     52
2  CC(=O)OCCC(C)C [isoamyl acetate]  Convective Drying: % Retention     60
3  CCCCCCCC(=O)OCC [Ethylcaprylate]  Convective Drying: % Retention     65

## Input Entry CCOC(=O)CC [ethyl propionate] has what Convective Drying: % Retention?
## Output 4

----------
Test: flavor retention of Model-flavor components in alginate capsules, drying with silicon dioxide vs fluidized bed drying
Type: physicochemical
Conditions: 200 g wet capsules mixed 10 minutes with 100 g silicon dioxide; shell water content 45%
observed-property: Drying "water adsorbing" Substances: % Retention (%)
Give bare numbers, in %.

Examples with their reported Drying "water adsorbing" Substances: % Retention follow.
> print(dat)
                           molecule  value
1     CCOC(=O)CC [ethyl propionate]     50
2  CCCCCCCC(=O)OCC [Ethylcaprylate]      0
3  CC(=O)OCCC(C)C [isoamyl acetate]     95

Now take the following molecule into account.
## Input Entry O=Cc1ccccc1 [benzaldehyde] has what Drying "water adsorbing" Substances: % Retention?
## Output 80

----------
Experiment: flavor retention of Model-flavor components in alginate capsules, short continuous vs long batch gelling (ether extraction, HRGC/MS)
Format: physicochemical
Conditions: wet alginate capsules, 5% calcium chloride, dwell time 2 hours; relative to Model-flavor solution theoretically encapsulated
observed-property: Flavor Retention, Long Gel Time (Batch)
Remember to put the unit after the number in your answer.

Go through the items and report each one's Flavor Retention, Long Gel Time (Batch).
1. CCCCCCCC(=O)OCC [Ethylcaprylate]
2. CCOC(=O)CC [ethyl propionate]
3. O=Cc1ccccc1
4. CC(=O)OCCC(C)C [isoamyl acetate]

## Output
["90%", "0%", "11%", "18.5%"]
